Value source: patent US8835476B2

- Test system: C. amalonaticus clinical isolates
- PROTOCOL_TEXT: Broth microdilution MIC, clinical isolate strains (NAUTICA)
- Format: cell-based
- REPORTED_CONDITIONS: Table 4B; each table row is one clinical isolate; unit assumed
MEASURE_NAME: MIC, C. AMALONATICUS

{"STRUCTURE_STRING": "COC(=O)c1sc(-c2ccc(F)cc2)cc1-c1nnnn1C", "VALUE_MEASURED": "> 4 µg/mL"}
{"STRUCTURE_STRING": "Cn1nnc(-c2cc(-c3ccc(F)cc3)sc2C(=O)O)n1", "VALUE_MEASURED": "> 16 µg/mL"}
{"STRUCTURE_STRING": "O=C(O)c1sc(-c2ccc(F)cc2)cc1-c1nnn[nH]1", "VALUE_MEASURED": "> 16 µg/mL"}
{"STRUCTURE_STRING": "Cn1nnc(-c2cc(-c3ccc(F)cc3)sc2-c2ccc(F)cc2)n1", "VALUE_MEASURED": "> 16 µg/mL"}
{"STRUCTURE_STRING": "Cn1nnnc1-c1cc(-c2ccc(F)cc2)sc1-c1ccc(F)cc1", "VALUE_MEASURED": "> 16 µg/mL"}
{"STRUCTURE_STRING": "Cn1nnnc1-c1cc(-c2ccc(F)cc2)sc1C(=O)O", "VALUE_MEASURED": "> 8 µg/mL"}
{"STRUCTURE_STRING": "COC(=O)c1sc(-c2ccc(F)cc2)cc1-c1nnn(C)n1", "VALUE_MEASURED": "> 8 µg/mL"}
{"STRUCTURE_STRING": "CCOC(=O)c1cc(-c2nnn(C)n2)c(-c2ccc(F)cc2)s1", "VALUE_MEASURED": "> 16 µg/mL"}
{"STRUCTURE_STRING": "Fc1ccc(-c2cc(-c3nnn[nH]3)c(-c3ccc(F)cc3)s2)cc1", "VALUE_MEASURED": "> 32 µg/mL"}

----------
- STUDY_TARGET: recombinant E. coli LpxA (Escherichia coli)
- Construct: 6xHis (C); made in house; host or cells: E. coli BL21 (pET23b)
- Sequence (P0A722 whole entry): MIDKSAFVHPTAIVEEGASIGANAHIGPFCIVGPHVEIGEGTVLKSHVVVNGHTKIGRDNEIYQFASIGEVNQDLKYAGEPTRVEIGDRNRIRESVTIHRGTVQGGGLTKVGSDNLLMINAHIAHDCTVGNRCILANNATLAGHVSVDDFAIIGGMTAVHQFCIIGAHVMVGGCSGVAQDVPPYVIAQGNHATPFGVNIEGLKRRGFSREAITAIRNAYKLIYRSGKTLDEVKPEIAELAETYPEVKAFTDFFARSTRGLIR
- PROTOCOL_TEXT: LpxA assay: acyl-UDP-GlcNAc formation from UDP-[3H]GlcNAc, TLC
- Format: biochemical
- REPORTED_CONDITIONS: 5 mM compound; FIG. 8

{"MOLECULE": "Cn1nnc(-c2cc(C(=O)O)sc2-c2cccc(F)c2)n1 [DNM-123A]", "inhibition at 5000 µM": "> 70%"}
{"MOLECULE": "NC(=O)c1ccc(-c2cc(-c3nnn[nH]3)c(-c3ccc(C(N)=O)cc3)s2)cc1 [DNM-131F]", "inhibition at 5000 µM": "> 80%"}
{"MOLECULE": "Oc1ccc(-c2cc(-c3nnn[nH]3)c(-c3ccc(O)cc3)s2)cc1 [DNM-131C]", "inhibition at 5000 µM": "> 80%"}
{"MOLECULE": "Cn1nnc(-c2cc(C(=O)O)sc2-c2ccc(F)cc2)n1 [DNM-123]", "inhibition at 5000 µM": "> 80%"}
{"MOLECULE": "Cn1nnc(-c2cc(C(=O)O)sc2-c2ccc(-c3ccccc3)cc2)n1 [DNM-123G]", "inhibition at 5000 µM": "> 80%"}
{"MOLECULE": "Cn1nnnc1-c1cc(-c2ccc(O)cc2)sc1-c1ccc(O)cc1 [DNM-133C]", "inhibition at 5000 µM": "> 80%"}
{"MOLECULE": "Cn1nnc(-c2cc(-c3ccc(O)cc3)sc2-c2ccc(O)cc2)n1 [DNM-132C]", "inhibition at 5000 µM": "> 80%"}
{"MOLECULE": "COc1ccc(-c2cc(-c3nnn[nH]3)c(-c3ccc(OC)cc3)s2)cc1 [DNM-131D]", "inhibition at 5000 µM": "> 80%"}
{"MOLECULE": "COC(=O)c1ccccc1-c1cc(-c2nnn[nH]2)c(-c2ccccc2C(=O)OC)s1 [DNM-131K]", "inhibition at 5000 µM": "> 70%"}
{"MOLECULE": "Fc1ccc(-c2cc(-c3nnn[nH]3)c(-c3ccc(F)cc3)s2)cc1 [DNM-131]", "inhibition at 5000 µM": "> 80%"}
{"MOLECULE": "Oc1cccc(-c2cc(-c3nnn[nH]3)c(-c3cccc(O)c3)s2)c1 [DNM-131A]", "inhibition at 5000 µM": "> 80%"}
{"MOLECULE": "O=C(O)c1sc(-c2ccc(F)cc2)cc1-c1nnn[nH]1 [DNM-141]", "inhibition at 5000 µM": "> 80%"}
{"MOLECULE": "CCOC(=O)c1ccc(-c2cc(-c3nnn[nH]3)c(-c3ccc(C(=O)OCC)cc3)s2)cc1 [DNM-131J]", "inhibition at 5000 µM": "> 80%"}
{"MOLECULE": "CCOC(=O)c1cc(-c2nnn[nH]2)c(-c2ccccn2)s1 [DNM-124I]", "inhibition at 5000 µM": "> 80%"}
{"MOLECULE": "CCOC(=O)c1cc(-c2nnn[nH]2)c(-c2ccc(F)cc2)s1 [DNM-124]", "inhibition at 5000 µM": "> 80%"}
{"MOLECULE": "COc1ccccc1-c1sc(C(=O)O)cc1-c1nnn(C)n1 [DNM-123F]", "inhibition at 5000 µM": "> 80%"}
{"MOLECULE": "NC(=O)c1cccc(-c2cc(-c3nnn[nH]3)c(-c3cccc(C(N)=O)c3)s2)c1 [DNM-131H]", "inhibition at 5000 µM": "> 70%"}
{"MOLECULE": "CCOC(=O)c1cc(-c2nnn[nH]2)c(-c2cccc(F)c2)s1 [DNM-124A]", "inhibition at 5000 µM": "> 80%"}
{"MOLECULE": "Cn1nnnc1-c1cc(C(=O)O)sc1-c1cccc2ccccc12 [DNM-122H]", "inhibition at 5000 µM": "> 80%"}
{"MOLECULE": "COc1ccc(-c2sc(C(=O)O)cc2-c2nnn(C)n2)cc1 [DNM-123E]", "inhibition at 5000 µM": "> 70%"}
{"MOLECULE": "Cn1nnc(-c2cc(-c3ccc(F)cc3)sc2C(=O)O)n1 [DNM-142]", "inhibition at 5000 µM": "> 70%"}
{"MOLECULE": "COc1cccc(-c2sc(C(=O)O)cc2-c2nnn(C)n2)c1 [DNM-123D]", "inhibition at 5000 µM": "> 80%"}
{"MOLECULE": "O=C(O)c1cc(-c2nnn[nH]2)c(-c2cccc3ccccc23)s1 [DNM-121H]", "inhibition at 5000 µM": "> 70%"}
{"MOLECULE": "Cn1nnc(-c2cc(C(=O)O)sc2-c2ccccn2)n1 [DNM-123I]", "inhibition at 5000 µM": "> 70%"}
{"MOLECULE": "Cn1nnnc1-c1cc(C(=O)O)sc1-c1ccc(-c2ccccc2)cc1 [DNM-122G]", "inhibition at 5000 µM": "> 80%"}
